- Test system: Aspergillus niger
- PROTOCOL: Antifungal activity against Aspergillus niger ATCC 6275 by microdilution technique
- Format: functional
I'd be grateful if you could share measured MIC for these entries.
Express the result in µg/mL but write the number alone.

Prompt: For the molecule C=C(CCO)C(=O)O[C@H]1C[C@]2(C)C([C@H](C=O)CC[C@H]2O)[C@H]2OC(=O)[C@H](C)[C@H]12 (stereo partly specified) , what MIC is on record?
Completion: 0.2

Prompt: Also C=C(CCO)C(=O)O[C@H]1C[C@]2(C)C([C@H]3OC(=O)[C@H](C)[C@H]13)[C@@H](C=O)CC[C@H]2O (stereo partly specified) , if possible.
Completion: 0.2

Prompt: Further, for C=C(C(=O)O[C@H]1C/C(C)=C/CC/C(CO)=C/[C@H]2OC(=O)[C@H](C)[C@H]12)C(O)CO (stereo partly specified) ?
Completion: 0.2

Prompt: Try the molecule Clc1ccc(COC(Cn2ccnc2)c2ccc(Cl)cc2Cl)c(Cl)c1 (stereo unspecified)
Completion: 1.5

Prompt: Next entry: CC(=O)OC/C=C(/CO)C(=O)O[C@H]1C/C(C)=C/CC/C(CO)=C/[C@H]2OC(=O)[C@H](C)[C@H]12
Completion: 0.2

Prompt: Another molecule to look at: C=C(CCO)C(=O)O[C@H]1C/C(C)=C/CC/C(CO)=C/[C@H]2OC(=O)[C@H](C)[C@H]12
Completion: 0.2

* * *

- Test system: Talaromyces funiculosus
- PROTOCOL: Antifungal activity against Penicillium funiculosum ATCC 36839 by microdilution technique
- Type: functional
ATTRIBUTE_MEASURED: MFC (µg/mL)
Return type: number; implicit unit µg/mL.

Prompt: Value wanted: MFC (Talaromyces funiculosus) of entry C=C(C(=O)O[C@H]1C/C(C)=C/CC/C(CO)=C/[C@H]2OC(=O)[C@H](C)[C@H]12)C(O)CO (stereo partly specified)
Completion: 0.3

Prompt: Also, C=C(CCO)C(=O)O[C@H]1C[C@]2(C)C([C@H]3OC(=O)[C@H](C)[C@H]13)[C@@H](C=O)CC[C@H]2O (stereo partly specified) please.
Completion: 0.4

Prompt: One more compound: CC(=O)OC/C=C(/CO)C(=O)O[C@H]1C/C(C)=C/CC/C(CO)=C/[C@H]2OC(=O)[C@H](C)[C@H]12
Completion: 0.3

Prompt: Likewise for Clc1ccc(COC(Cn2ccnc2)c2ccc(Cl)cc2Cl)c(Cl)c1 (stereo unspecified) ?
Completion: 5

Prompt: Same question for C=C(CCO)C(=O)O[C@H]1C/C(C)=C/CC/C(CO)=C/[C@H]2OC(=O)[C@H](C)[C@H]12 please.
Completion: 0.3

Prompt: Then this compound: C=C(CCO)C(=O)O[C@H]1C[C@]2(C)C([C@H](C=O)CC[C@H]2O)[C@H]2OC(=O)[C@H](C)[C@H]12 (stereo partly specified)
Completion: 0.4

* * *

Please go through the items and note down their MFC.
- Test system: Trichoderma viride
- PROTOCOL: Antifungal activity against Trichoderma viride IAM 5061 by microdilution technique
- Type: functional

Prompt: Given Clc1ccc(COC(Cn2ccnc2)c2ccc(Cl)cc2Cl)c(Cl)c1 (stereo unspecified) , state its recorded MFC.
Completion: 2 µg/mL

Prompt: Quick one: C=C(CCO)C(=O)O[C@H]1C[C@]2(C)C([C@H]3OC(=O)[C@H](C)[C@H]13)[C@@H](C=O)CC[C@H]2O (stereo partly specified)
Completion: 0.5 µg/mL

Prompt: // same read-out, input: C=C(C(=O)O[C@H]1C/C(C)=C/CC/C(CO)=C/[C@H]2OC(=O)[C@H](C)[C@H]12)C(O)CO (stereo partly specified)
Completion: 0.3 µg/mL

Prompt: Next molecule up: C=C(CCO)C(=O)O[C@H]1C/C(C)=C/CC/C(CO)=C/[C@H]2OC(=O)[C@H](C)[C@H]12
Completion: 0.3 µg/mL

Prompt: Now the same for C=C(CCO)C(=O)O[C@H]1C[C@]2(C)C([C@H](C=O)CC[C@H]2O)[C@H]2OC(=O)[C@H](C)[C@H]12 (stereo partly specified)
Completion: 0.4 µg/mL

Prompt: CC(=O)OC/C=C(/CO)C(=O)O[C@H]1C/C(C)=C/CC/C(CO)=C/[C@H]2OC(=O)[C@H](C)[C@H]12 ?
Completion: 0.3 µg/mL

* * *

- System: Staphylococcus epidermidis
- PROTOCOL: Antibacterial activity against Staphylococcus epidermidis ATCC 12228 by microdilution technique
- Type: functional
For each of the compounds below, state its MIC.
Reply with just the number (in µg/mL).

Prompt: For the compound shown here, CN[C@@H]1[C@H](O[C@H]2[C@H](O[C@H]3[C@H](O)[C@@H](O)[C@H](N=C(N)N)[C@@H](O)[C@@H]3N=C(N)N)O[C@@H](C)[C@]2(O)C=O)O[C@@H](CO)[C@H](O)[C@H]1O (stereo in doubt) , give the reported MIC.
Completion: 1

Prompt: Also check C=C(CCO)C(=O)O[C@H]1C/C(C)=C/CC/C(CO)=C/[C@H]2OC(=O)[C@H](C)[C@H]12
Completion: 0.4

Prompt: Now the same for C=C(CCO)C(=O)O[C@H]1C[C@]2(C)C([C@H]3OC(=O)[C@H](C)[C@H]13)[C@@H](C=O)CC[C@H]2O (stereo partly specified)
Completion: 0.4

Prompt: Consider next the compound C=C(CCO)C(=O)O[C@H]1C[C@]2(C)C([C@H](C=O)CC[C@H]2O)[C@H]2OC(=O)[C@H](C)[C@H]12 (stereo partly specified) in the same way.
Completion: 0.4

Prompt: Further, for CC(=O)OC/C=C(/CO)C(=O)O[C@H]1C/C(C)=C/CC/C(CO)=C/[C@H]2OC(=O)[C@H](C)[C@H]12 ?
Completion: 0.4

Prompt: And the next one, C=C(C(=O)O[C@H]1C/C(C)=C/CC/C(CO)=C/[C@H]2OC(=O)[C@H](C)[C@H]12)C(O)CO (stereo partly specified) ?
Completion: 0.4

* * *

- Test system: Escherichia coli
- PROTOCOL: Antibacterial activity against Escherichia coli ATCC 35210 by microdilution technique
- Assay type: functional
ATTRIBUTE_MEASURED: MBC (µg/mL)
Give the value, in units of µg/mL, as a plain number.

Prompt: Bench note: what MBC did CN[C@@H]1[C@H](O[C@H]2[C@H](O[C@H]3[C@H](O)[C@@H](O)[C@H](N=C(N)N)[C@@H](O)[C@@H]3N=C(N)N)O[C@@H](C)[C@]2(O)C=O)O[C@@H](CO)[C@H](O)[C@H]1O (stereo in doubt) [STREPTOMYCIN] show?
Completion: 1

Prompt: Now consider C=C(CCO)C(=O)O[C@H]1C[C@]2(C)C([C@H]3OC(=O)[C@H](C)[C@H]13)[C@@H](C=O)CC[C@H]2O (stereo partly specified) .
Completion: 0.4

Prompt: Same question for C=C(C(=O)O[C@H]1C/C(C)=C/CC/C(CO)=C/[C@H]2OC(=O)[C@H](C)[C@H]12)C(O)CO (stereo partly specified) please.
Completion: 0.3

Prompt: Can you check C=C(CCO)C(=O)O[C@H]1C[C@]2(C)C([C@H](C=O)CC[C@H]2O)[C@H]2OC(=O)[C@H](C)[C@H]12 (stereo partly specified) next?
Completion: 0.4

Prompt: Further, for C=C(CCO)C(=O)O[C@H]1C/C(C)=C/CC/C(CO)=C/[C@H]2OC(=O)[C@H](C)[C@H]12 ?
Completion: 0.2

Prompt: How about this compound: CC(=O)OC/C=C(/CO)C(=O)O[C@H]1C/C(C)=C/CC/C(CO)=C/[C@H]2OC(=O)[C@H](C)[C@H]12
Completion: 0.3

* * *

- Tested on: Salmonella enteritidis
- PROTOCOL: Antibacterial activity against Salmonella enteritidis by microdilution technique
- Type: functional, Salmonella enterica subsp. enterica serovar Enteritidis
- STATED_CONDITIONS: Salmonella enterica
I'd be grateful if you could share measured MIC for these entries.
Just the number in µg/mL, nothing appended.

Prompt: // lookup MIC for C=C(CCO)C(=O)O[C@H]1C[C@]2(C)C([C@H]3OC(=O)[C@H](C)[C@H]13)[C@@H](C=O)CC[C@H]2O (stereo partly drawn)
Completion: 0.4

Prompt: Lookup CC(=O)OC/C=C(/CO)C(=O)O[C@H]1C/C(C)=C/CC/C(CO)=C/[C@H]2OC(=O)[C@H](C)[C@H]12
Completion: 0.3

Prompt: Ok, now CN[C@@H]1[C@H](O[C@H]2[C@H](O[C@H]3[C@H](O)[C@@H](O)[C@H](N=C(N)N)[C@@H](O)[C@@H]3N=C(N)N)O[C@@H](C)[C@]2(O)C=O)O[C@@H](CO)[C@H](O)[C@H]1O (stereo in doubt) [STREPTOMYCIN]
Completion: 1

* * *

- Tested on: Escherichia coli
- PROTOCOL: Antibacterial activity against Escherichia coli ATCC 35210 by microdilution technique
- Format: functional
Kindly state MIC for each of the entries shown.
Record the value in µg/mL, omitting the unit from your answer.

Prompt: Give the reported MIC for C=C(CCO)C(=O)O[C@H]1C[C@]2(C)C([C@H](C=O)CC[C@H]2O)[C@H]2OC(=O)[C@H](C)[C@H]12 (stereo partly specified) (system: Escherichia coli).
Completion: 0.4

Prompt: What about this compound? C=C(CCO)C(=O)O[C@H]1C[C@]2(C)C([C@H]3OC(=O)[C@H](C)[C@H]13)[C@@H](C=O)CC[C@H]2O (stereo partly specified)
Completion: 0.4

Prompt: And for C=C(C(=O)O[C@H]1C/C(C)=C/CC/C(CO)=C/[C@H]2OC(=O)[C@H](C)[C@H]12)C(O)CO (stereo partly specified) ?
Completion: 0.2

Prompt: What would you report for CN[C@@H]1[C@H](O[C@H]2[C@H](O[C@H]3[C@H](O)[C@@H](O)[C@H](N=C(N)N)[C@@H](O)[C@@H]3N=C(N)N)O[C@@H](C)[C@]2(O)C=O)O[C@@H](CO)[C@H](O)[C@H]1O (stereo in doubt) ?
Completion: 0.5

Prompt: Can you check C=C(CCO)C(=O)O[C@H]1C/C(C)=C/CC/C(CO)=C/[C@H]2OC(=O)[C@H](C)[C@H]12 next?
Completion: 0.2

Prompt: Record: CC(=O)OC/C=C(/CO)C(=O)O[C@H]1C/C(C)=C/CC/C(CO)=C/[C@H]2OC(=O)[C@H](C)[C@H]12
Completion: 0.3
